meta.source: BindingDB's records for doi:10.1096/fasebj.10.12.8903510

# TESTED_TARGET: 5-hydroxytryptamine receptor 4 (Cavia porcellus, UniProt O70528)
# Sequence (O70528 whole entry): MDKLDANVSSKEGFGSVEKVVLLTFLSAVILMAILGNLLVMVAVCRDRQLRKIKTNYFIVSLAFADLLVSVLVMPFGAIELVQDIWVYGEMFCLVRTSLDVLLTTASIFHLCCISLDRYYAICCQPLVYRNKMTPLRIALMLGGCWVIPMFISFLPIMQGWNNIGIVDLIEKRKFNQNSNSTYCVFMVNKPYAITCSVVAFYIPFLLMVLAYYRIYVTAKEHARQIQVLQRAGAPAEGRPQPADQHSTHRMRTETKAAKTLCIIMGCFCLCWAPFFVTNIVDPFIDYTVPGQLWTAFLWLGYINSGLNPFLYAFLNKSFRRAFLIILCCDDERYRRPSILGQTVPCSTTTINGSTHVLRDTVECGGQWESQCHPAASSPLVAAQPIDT
pKi: −log10 of the molar value.
MEASURE: pKi

Reference set, count: 2
1) Cn1cc(C(=O)OCC2CCN(CCNS(C)(=O)=O)CC2)c2ccccc21 ... 10.22
2) CCCCN1CCC(CNC(=O)c2c3n(c4ccccc24)CCCO3)CC1 ... 9.41

a: COc1[nH]c2ccc(F)cc2c1C(=O)OCC1CCN(CCNS(C)(=O)=O)CC1
b: COc1cc(COc2cc(N)c(Cl)cc2C(=O)CCCCN2CCCCC2)cc(OC)c1
Exercise: Hi! Which is lower in terms of pKi, the first one a or the second one b ? # respond with the chosen item's label
Solution: b
